Source listed as the supplement of paper PMC10567573.

B1: MMP1 (parent)
chain: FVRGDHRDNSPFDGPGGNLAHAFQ

variants of: B1; assay: protein stability index of a GFP-peptide fusion (GPS, HEK-293T) (PSI 1-6); higher = more stable; settings: c terminus: a fixed tail appended;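 note: lentivirally expressed fusions sorted by FACS into six bins by GFP to DsRed ratio, PSI derived from sequencing read proportions per bin multiplied by bin number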
MEASUREMENT_LABEL: protein stability index
Number only, no unit.

Please report the measured protein stability index for FVRGDHRDNSPFDHPGGNLAHAFQ [G14H]
1.39

Please report the measured protein stability index for FVRGDHRDNSPFDGPQGNLAHAFQ [G16Q]
2.75

Please report the measured protein stability index for GVRGDHRDNSPFDGPGGNLAHAFQ [F1G]
3.33

Please report the measured protein stability index for FRRGDHRDNSPFDGPGGNLAHAFQ [V2R]
3.48

Please report the measured protein stability index for WVRGDHRDNSPFDGPGGNLAHAFQ [F1W]
2.48

Please report the measured protein stability index for FVRGDHRDNSPFDGPGGGLAHAFQ [N18G]
1.99

Please report the measured protein stability index for FVRTDHRDNSPFDGPGGNLAHAFQ [G4T]
2.52

Please report the measured protein stability index for FVRGDHRDNSKFDGPGGNLAHAFQ [P11K]
1.78

Please report the measured protein stability index for FVRGDHRDNSPEDGPGGNLAHAFQ [F12E]
1.82

Please report the measured protein stability index for FVRGDHRDNSPIDGPGGNLAHAFQ [F12I]
1.72

Please report the measured protein stability index for FVRGDHRDNSPFDGPGGNLAEAFQ [H21E]
1.94

Please report the measured protein stability index for FVSGDHRDNSPFDGPGGNLAHAFQ [R3S]
1.99

Please report the measured protein stability index for FVRGDHRDNSPFDGPPGNLAHAFQ [G16P]
1.75

Please report the measured protein stability index for FVRGDHRDNSPFDGPGGNLAHALQ [F23L]
1.89

Please report the measured protein stability index for FVRGDDRDNSPFDGPGGNLAHAFQ [H6D]
2.5

Please report the measured protein stability index for FVRGDHRWNSPFDGPGGNLAHAFQ [D8W]
3.09

Please report the measured protein stability index for FVRGDHRDPSPFDGPGGNLAHAFQ [N9P]
2.4

Please report the measured protein stability index for FVRGDHRDNSPFDGPGNNLAHAFQ [G17N]
2.48

Please report the measured protein stability index for QVRGDHRDNSPFDGPGGNLAHAFQ [F1Q]
4.01

Please report the measured protein stability index for FVRGDHRDNSMFDGPGGNLAHAFQ [P11M]
1.6

Please report the measured protein stability index for FVRGDHRDNSPFDGPVGNLAHAFQ [G16V]
1.83

Please report the measured protein stability index for FVRGDHRDNSPFAGPGGNLAHAFQ [D13A]
1.37
